test system: hiPSC-CMs (iCell-Cardiomyocytes^2); settings: 1 µM, 2h
measured_quantity: EAD, number of observations/total well numbers

1) Cc1cn(-c2cc(NC(=O)c3ccc(C)c(Nc4nccc(-c5cccnc5)n4)c3)cc(C(F)(F)F)c2)cn1 [Nilotinib]
1/5
2) CC(C)(Sc1cc(C(C)(C)C)c(O)c(C(C)(C)C)c1)Sc1cc(C(C)(C)C)c(O)c(C(C)(C)C)c1 [Probucol]
0/4
3) COc1cccc2c1C(=O)c1c(O)c3c(c(O)c1C2=O)C[C@@](O)(C(=O)CO)C[C@@H]3O[C@H]1C[C@H](N)[C@H](O)[C@H](C)O1 [Doxorubicin]
0/5

Origin of the recorded values: paper PMC10364322
